# experiment: yeast display, Sf9 membrane polyspecificity reagent, FACS + sequencing; frameworks hold sequencing errors
readout type: polyreactivity (PSR sort gate)

Examples from the recorded data:
{"columns": ["sequence code", "polyreactivity (PSR sort gate)"],
 "data": [
  ["QVQLVESGGGLVQAGGSLRLSCAASGRIFLYYTMGWYRQAPGKERELVATIRSGDSTNYADSVKGRFTISRDNAKNTVYLQMNSLKPEDTAVYYCAADWDIFQQGANGAPYDYWGQGTQVTVSS", "low polyreactivity"],
  ["QVQLVESGGGLVQAGGSLRLSCGASGGTFVSNAMGWYRQAPGKERELVAAITSGCNTTYADSVKGRFTISRDNAKNTVYLQMNSLKPEDTAVYYCATDFEGSWIDARGTWYYVWFGYWGQGTQVTVSS", "low polyreactivity"],
  ["QVQLVESGGGLVQAGGSLRLSCAASGSTFNWNAMGWYRQAPGTERELVAAISKSGGTTYYADSVKGRFTISRDNAKNTVYFQMNSLKPEDTAVYYCAAVRRYHSYPDGGYWGQGTQVTVSS", "high polyreactivity"],
  ["QVQLVESGGGLVQAGGSHRLSCAASGSTFYRYAMGWYRQAPGKEREFVAAISTRGGSTHYADSVKGRFTISRDNAKNTVYLQMNSLKPEDTAVYYCNARGYYSVPSNTGIRYYRFDYWGQGTQVTLSS", "low polyreactivity"],
  ["QEQLQESGGGLVQAGGSLRLSCAASGSISPYIYMGWYRQAPGKERAFVAGIGYGGTTNYADSEKGRYTISRDNAKNTEYLQMNSLKPDDTALYYCNAAYFAGPADDKFDYWGQGTQVTVSS", "low polyreactivity"]
]}

polyreactivity (PSR sort gate) lookup needed for QVQLVESGGGLVQAGGSLRLSCAASGSILAGYAMGWYRQAPGKERELVAAITGGYVRSYYADSVKGRFTISRDNAKNTDYLQMNSLKPEDTAVYYCAATWGSVQKGTYYYWGQGTQVTVSS , thanks.
low polyreactivity

polyreactivity (PSR sort gate) lookup needed for QVQLVESGGGLVQAGGSLRLSCAASGGTFGYNVMGWYRQAPGKERELVAAISYSVGGTYYADSVKGRFTISRDNAMNTVYLQMNSLKPEDTAVYYCAATGRRRTYSEYEYWGQGTQVTVSS , thanks.
high polyreactivity
